- Measured on: EGFR on EGFR positive non-small cell lung cancer cells NCI-H1650 (UniProt P00533 25-1210)
- Assay overview: cell-based or functional assay
Assay metric: H1650 CTG-3D EC50 (µg/mL)
Just the number please, in µg/mL, no unit attached.

Sample records with H1650 CTG-3D EC50:
{"columns": ["Binder", "H1650 CTG-3D EC50 / µg/mL"],
 "data": [
  ["AbB-YG (antibody, human IgG1, kappa, V domains shown, synthon YG on reduced interchain cysteines; average DAR 1.1 per ADC) VH: EVQLQESGPGLVKPSQTLSLTCTVSGYSISNDFAWNWIRQPPGKGLEWMGYISYKGNTRYQPSLKSRITISRDTSKNQFFLKLNSVTAADTATYYCVTASRGFPWWGQGTLVTVSS VL: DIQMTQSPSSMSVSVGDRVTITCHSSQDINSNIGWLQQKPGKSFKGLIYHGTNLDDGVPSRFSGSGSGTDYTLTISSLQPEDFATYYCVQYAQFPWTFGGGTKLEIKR", 3.28],
  ["AbK-YG (antibody, human IgG1, kappa, V domains shown, synthon YG on reduced interchain cysteines; average DAR 0.9 per ADC) VH: EVQLQESGPGLVKPSQTLSLTCTVSGYSISRDFAWNWIRQPPGKGLEWMGYISYNGNTRYQPSLKSRITISRDTSKNQFFLKLNSVTAADTATYYCVTASRGFPWWGQGTLVTVSS VL: DIQMTQSPSSMSVSVGDRVTITCHSSQDITYNVGWLQQKPGKSFKGLIYHGSNLDHGVPSRFSGSGSGTDYTLTISSLQPEDFATYYCVQYDDFPWTFGGGTKLEIKR", 12.3]
]}

Could you now look at the following binder, please?
[Q] Endpoint output: H1650 CTG-3D EC50 of AbK-SE (antibody, human IgG1, kappa, V domains shown, synthon SE on reduced interchain cysteines; average DAR 2.7 per ADC) VH: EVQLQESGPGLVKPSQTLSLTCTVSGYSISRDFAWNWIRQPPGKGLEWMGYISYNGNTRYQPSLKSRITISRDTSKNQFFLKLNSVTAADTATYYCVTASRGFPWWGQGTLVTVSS VL: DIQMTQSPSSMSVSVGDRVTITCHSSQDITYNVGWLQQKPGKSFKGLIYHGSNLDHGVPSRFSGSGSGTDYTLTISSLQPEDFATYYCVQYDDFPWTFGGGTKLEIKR . Value?
[A] 2.67
